# studySystem: BRG1 (Homo sapiens)
# Construct: either BRM primary antibody (Cell signaling Cat #11966) or BRG primary antibody (Abcam, ab 110641); endogenous in cells; host or cells: SW1573
# testProtocol: Immunofluorescence assay for BRG1 degradation in SW1573 cells
# Assay type: cell-based
# assayConditions: 20 hours incubation, immunofluorescence mean nuclear signal, read-out: BRG1 IF Degradation IC50
# DC50 values compiled below

Record Nc1nnc(-c2ccccc2O)cc1N1CC2CCC(C1)N2c1ccnc(C#CCN2CC3CCCC32)c1 (stereo not shown) , field DC50: < 10 nM

----------
# studySystem: BRG1 (Homo sapiens, UniProt P51532)
# Construct: either BRM primary antibody (Cell signaling Cat #11966) or BRG primary antibody (Abcam, ab 110641); endogenous in cells; host or cells: SW1573
# Sequence (P51532 whole entry): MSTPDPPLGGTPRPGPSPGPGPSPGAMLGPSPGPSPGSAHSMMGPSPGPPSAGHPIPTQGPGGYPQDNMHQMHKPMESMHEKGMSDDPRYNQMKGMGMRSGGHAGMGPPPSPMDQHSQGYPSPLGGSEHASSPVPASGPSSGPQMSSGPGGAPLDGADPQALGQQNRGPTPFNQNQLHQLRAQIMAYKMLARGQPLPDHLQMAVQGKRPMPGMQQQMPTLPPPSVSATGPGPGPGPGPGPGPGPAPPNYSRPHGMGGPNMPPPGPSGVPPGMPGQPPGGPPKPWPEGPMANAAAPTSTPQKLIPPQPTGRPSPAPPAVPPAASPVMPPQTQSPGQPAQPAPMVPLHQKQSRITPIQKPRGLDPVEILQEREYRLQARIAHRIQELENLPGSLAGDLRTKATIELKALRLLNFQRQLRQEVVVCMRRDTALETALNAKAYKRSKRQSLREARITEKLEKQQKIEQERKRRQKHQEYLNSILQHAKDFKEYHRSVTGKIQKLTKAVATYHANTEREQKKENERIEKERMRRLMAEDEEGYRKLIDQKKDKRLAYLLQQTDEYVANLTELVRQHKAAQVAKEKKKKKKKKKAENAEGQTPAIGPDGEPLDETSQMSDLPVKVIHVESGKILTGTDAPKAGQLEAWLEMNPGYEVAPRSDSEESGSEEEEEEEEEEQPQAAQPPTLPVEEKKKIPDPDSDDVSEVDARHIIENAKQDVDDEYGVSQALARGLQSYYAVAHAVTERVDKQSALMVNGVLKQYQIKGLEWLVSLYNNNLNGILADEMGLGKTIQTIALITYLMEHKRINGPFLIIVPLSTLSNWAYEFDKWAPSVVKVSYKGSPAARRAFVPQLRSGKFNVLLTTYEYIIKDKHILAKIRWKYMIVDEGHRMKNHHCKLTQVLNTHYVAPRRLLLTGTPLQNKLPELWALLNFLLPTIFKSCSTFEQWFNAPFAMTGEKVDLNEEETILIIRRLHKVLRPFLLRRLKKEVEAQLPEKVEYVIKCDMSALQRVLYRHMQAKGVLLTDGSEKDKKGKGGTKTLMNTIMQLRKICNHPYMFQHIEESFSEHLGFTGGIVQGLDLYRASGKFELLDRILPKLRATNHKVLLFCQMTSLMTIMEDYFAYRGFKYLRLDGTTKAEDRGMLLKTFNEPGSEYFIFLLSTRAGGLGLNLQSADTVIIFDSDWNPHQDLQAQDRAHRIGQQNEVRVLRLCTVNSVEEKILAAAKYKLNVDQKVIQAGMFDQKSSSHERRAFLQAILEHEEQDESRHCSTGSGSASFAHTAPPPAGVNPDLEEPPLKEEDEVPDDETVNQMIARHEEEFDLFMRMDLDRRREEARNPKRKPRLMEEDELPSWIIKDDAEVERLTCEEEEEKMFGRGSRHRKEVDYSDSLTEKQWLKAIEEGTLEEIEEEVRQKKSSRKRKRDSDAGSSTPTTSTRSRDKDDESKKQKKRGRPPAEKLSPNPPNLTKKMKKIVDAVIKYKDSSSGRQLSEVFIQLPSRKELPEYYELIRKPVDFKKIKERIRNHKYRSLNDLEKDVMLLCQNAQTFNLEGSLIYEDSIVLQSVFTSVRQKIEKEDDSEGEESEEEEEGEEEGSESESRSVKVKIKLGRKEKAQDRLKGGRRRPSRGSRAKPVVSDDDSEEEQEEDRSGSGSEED
# testProtocol: Immunofluorescence assay for BRG1 degradation in SW1573 cells
# Type: cell-based
# assayConditions: 20 hours incubation, immunofluorescence mean nuclear signal, read-out: BRG1 IF Degradation IC50
property: DC50

Measured DC50, Nc1nnc(-c2ccccc2O)cc1N1CC2CCC(C1)N2c1ccnc(C#CCN2CCC3COCC3C2)c1 (stereo not drawn) : < 10 nM

The measured DC50 associated with CN1CC2(CCN(CC#Cc3cc(N4C5CCC4CN(c4cc(-c6ccccc6O)nnc4N)C5)ccn3)C2)C1 reads > 100 nM

Short answer for Nc1nnc(-c2ccccc2O)cc1N1CC2CCC(C1)N2c1ccnc(C#CCN2CCOC(CF)C2)c1 (stereo not drawn) : DC50 was > 100 nM

Data point: CC1CN(CC#Cc2cc(N3C4CCC3CN(c3cc(-c5ccccc5O)nnc3N)C4)ccn2)CCN1 (stereo not drawn) ; DC50 = > 100 nM

Input COCC1CCCCN1CC#Cc1cc(N2C3CCC2CN(c2cc(-c4ccccc4O)nnc2N)C3)ccn1 (stereo not drawn) . Output DC50: 10 to 100 nM

Entry Nc1nnc(-c2ccccc2O)cc1N1CC2CCC(C1)N2c1ccnc(C#CCN2CCCC(CO)C2)c1 (stereo not drawn) , DC50 reported as 10 to 100 nM

Record summary for Nc1nnc(-c2ccccc2O)cc1N1CC2CCC(C1)N2c1ccnc(C#CCN2C[C@H]3CCO[C@H]3C2)c1 : reported DC50 = < 10 nM

DC50 recorded for this compound, Nc1nnc(-c2ccccc2O)cc1N1CC2CCC(C1)N2c1ccnc(C#CCN2CCOC3CC32)c1 (stereo not drawn) , is > 100 nM

----------
# studySystem: BRG1 (Homo sapiens, UniProt P51532)
# Construct: either BRM primary antibody (Cell signaling Cat #11966) or BRG primary antibody (Abcam, ab 110641); endogenous in cells; host or cells: SW1573
# testProtocol: Immunofluorescence assay for BRG1 degradation in SW1573 cells
# Format: cell-based
# assayConditions: SW1573, 20 h, 20 hours incubation, normalized to a known degrader control, read-out: BRG1 IF Degradation Sinf (%)
# Procedure: Example B-2: Immunofluorescence Assay for BRM and BRG1 Degraders SW1573 cells were seeded at 3000 cells/well in 384 well plates. The next day, compounds were added using an Echo dispenser. […] Harmony software (Perking Elmer) was used to quantify the mean nuclear signaling intensity of BRM or BRG signaling per cell in each well. Dose responses were determined from the concentration dependent response of mean nuclear signal intensity with data normalized to a known degrader control. […]
property: Dmax

Some compounds with recorded Dmax:
INSERT INTO assay_data (compound, readoutvalue) VALUES
  ('CN1CC2(CCN(CC#Cc3cc(N4C5CCC4CN(c4cc(-c6ccccc6O)nnc4N)C5)ccn3)C2)C1 [Compound 156]', '30 to 70%'),
  ('Nc1nnc(-c2ccccc2O)cc1N1CC2CCC(C1)N2c1ccnc(C#CCN2CCCCC(O)C2)c1 (stereo not drawn) [Compound 242]', '30 to 70%'),
  ('Nc1nnc(-c2ccccc2O)cc1N1CC2CCC(C1)N2c1ccnc(C#CCN2CC3CCC2C3)c1 (stereo not drawn) [Compound 141]', '30 to 70%');

Value of Dmax reported for the compound Nc1nnc(-c2ccccc2O)cc1N1CC2CCC(C1)N2c1ccnc(C#CCN2CCC3(CCCO3)C2)c1 (stereo not drawn) [Compound 44] is 30 to 70%

Form field Dmax, entry CNC(=O)C1CCCCN1CC#Cc1cc(N2C3CCC2CN(c2cc(-c4ccccc4O)nnc2N)C3)ccn1 (stereo not drawn) [Compound 96] : 0 to 30%

// sample Nc1nnc(-c2ccccc2O)cc1N1CC2CCC(C1)N2c1ccnc(C#CCN2CCC[C@@H]3CC[C@@H]32)c1 [Compound 102] , its Dmax was 30 to 70%

Form: compound = CN1CCCN(CC#Cc2cc(N3C4CCC3CN(c3cc(-c5ccccc5O)nnc3N)C4)ccn2)CC1 [Compound 47] ; Dmax = 0 to 30%

Data point: NCCC#Cc1cc(N2C3CCC2CN(c2cc(-c4ccccc4O)nnc2N)C3)ccn1 [Compound 30] ; Dmax = 0 to 30%

# Dmax (compound: Nc1nnc(-c2ccccc2O)cc1N1CC2CCC(C1)N2c1ccnc(C#CCN2CCC(O)C2)c1 (stereo not drawn) [Compound 52] ) is 30 to 70%

Sure, the documented Dmax for Nc1nnc(-c2ccccc2O)cc1N1CC2CCC(C1)N2c1ccnc(C#CCN2CCCCC(F)(F)C2)c1 [Compound 181] is 30 to 70%

Memo: Nc1nnc(-c2ccccc2O)cc1N1CC2CCC(C1)N2c1ccnc(C#CCN2CC(F)C2)c1 [Compound 228] , reported Dmax: 0 to 30%

Item: Nc1nnc(-c2ccccc2O)cc1N1CC2CCC(C1)N2c1ccnc(C#CCN2CCC[C@H]2CO)c1 [Compound 46] | Dmax: 30 to 70%

The compound COC[C@@H]1CCN1CC#Cc1cc(N2C3CCC2CN(c2cc(-c4ccccc4O)nnc2N)C3)ccn1 [Compound 186] showed Dmax equal to 30 to 70%

// Dmax value for Nc1nnc(-c2ccccc2O)cc1N1CC2CCC(C1)N2c1ccnc(C#CCN2CC(CO)(c3ccccc3)C2)c1 [Compound 179] : 30 to 70%

Entry Nc1nnc(-c2ccccc2O)cc1N1CC2CCC(C1)N2c1ccnc(C#CCN2CC(C(F)F)C2)c1 [Compound 95] ; Dmax = 30 to 70%
